Entries annotated with measured Cmax
- Experiment Description: Cmax in mouse plasma at 5 mg/kg,iv administration
- Type: ADME, organism-based

# Compound, Cmax
data = [
    ("COCOC[C@H](Cc1ccc(C)cc1)n1c(=N)n(C(C)c2ccc(C)cc2)c2cccnc21 (stereo in doubt; 62c)", "741 ng/mL"),
    ("Cc1ccc(C[C@@H](CNC(=O)CO)n2c(=N)n(C(C)c3ccc(C)cc3)c3ccccc32)cc1 (stereo in doubt; 65c)", "600 ng/mL"),
    ("Cc1ccc(C[C@@H](C(=O)N2CC(C#N)C2)n2c(=N)n(C(C)c3ccc(C)cc3)c3cccnc32)cc1 (stereo not given in full)", "651 ng/mL"),
    ("Cc1ccc(C[C@@H](C(=O)N2CC(C#N)C2)n2c(=N)n(C(C)c3ccc(C)cc3)c3ccccc32)cc1 (mixture of isomers)", "225 ng/mL"),
    ("COC[C@H](Cc1ccc(C)cc1)n1c(=N)n(C(c2ccc(C)cc2)C2CC2)c2ccccc21 (stereo in doubt; 61b)", "841 ng/mL"),
]
